Would you kindly list GI50 for each of these compounds?
# Tested on: EKVX
# Assay summary: NCI tumour cell line growth inhibition, 48 h
Activity calls are given as the source filed them. Cut-off read from the data, not from the text of the source: active = GI50 up to about 1.1 µM and inactive = higher.

Compound: CC1=C2C(=O)OCC23C=COC3(C)O1 (stereo not given)
Result: 35.7 µM (inactive)
--
Compound: Fc1cc(C2=Nn3c(COc4ccccc4Cl)nnc3S/C2=C\c2ccc(Cl)cc2)c(Cl)cc1Cl
Result: 10.1 µM (inactive)

Dear reader, for each entry below, please note its GI50.
1. CC1(C)CC(=O)C(CC2C(=O)c3ccccc3C2=O)C(=O)C1C(=O)C(=O)Nc1cccc2ccc(O)cc12 (stereo not given)
2. Cc1ccc2c3c(cnc2n1)C(=O)OCCN3C

["43.9 µM (inactive)", "> 100 µM (inactive)"]

Dear reader, for each entry below, please note its GI50.
1. NNC(=S)N/N=C(\CC1OC(=O)c2ccccc21)c1ccccc1O (stereo not given)
2. O=C(NCc1cccs1)OC1CC2CCC1C2 (stereo not given)
3. CC(=O)OCC(OC(C)=O)C(OC(C)=O)C(OC(C)=O)C(C=NN(C(C)=O)S(=O)(=O)c1ccc(/C=C2\NC(=O)N(C)C2=O)cc1)OC(C)=O (stereo not given)
4. O[C@H]1[C@@H]2OC[C@@H](O)[C@H](OCc3ccccc3)[C@@](COCc3ccccc3)(O2)[C@@H]1OCc1ccccc1
5. CCOC(=O)C1C(=O)C(C(=O)OCC)C(c2ccccc2)N(C)C1c1ccccc1 (stereo not given)
6. CC(C)=CCC[C@@H](C)C1=C(O)C(=O)C(C)=C(N)C1=O

78.7 µM (inactive)
> 100 µM (inactive)
43 µM (inactive)
14.5 µM (inactive)
> 100 µM (inactive)
36.1 µM (inactive)

---

# System: NCI-H23
# Assay summary: NCI tumour cell line growth inhibition, 48 h
Active and inactive are the calls of the source. No stated cut-off is given here; in the data, active = GI50 up to about 1.1 µM and inactive = higher.
Would you kindly list GI50 for each of these compounds?

Compound: CCCCCCCC(=O)O[C@H]1[C@H]2[C@@H](CC1(C)C)C(=O)[C@]13O[C@H]1C(=O)[C@]1(CO1)[C@]23C
Target or test system: NCI-H23
GI50: 3.46 µM (inactive)
//
Compound: COC(=O)C1(NC(=O)C(N)CC(=O)O)C(C)C1C (stereo unspecified)
Target or test system: NCI-H23
GI50: > 100 µM (inactive)
//
Compound: CC(=O)N1CC(=O)N2C(=O)/C(=C/c3ccc(Cl)cc3)N=C12
Target or test system: NCI-H23
GI50: > 100 µM (inactive)
//
Compound: NCCCCNOCCCN
Target or test system: NCI-H23
GI50: > 100 µM (inactive)
//
Compound: NNC(=S)N/N=C/C(Cl)=C(\Cl)C(=O)O
Target or test system: NCI-H23
GI50: > 100 µM (inactive)
//
Compound: CC1(C)C2CCC3=C(CCC4(C)C5C[C@](C)(C(=O)O)CC[C@]5(C)CC[C@]34C)[C@@]2(C)CC[C@@H]1O (stereo partly specified)
Target or test system: NCI-H23
GI50: 19.3 µM (inactive)

Dear reader, for each entry below, please note its GI50.
1. c1ccc(SCCP(CCP(c2ccccc2)c2ccccc2)c2ccccc2)cc1 (stereo unspecified)
2. C=C1CC[C@@H]2C(C)(C)C(O)CCC2(C)C1COc1ccc2ccc(=O)oc2c1 (stereo partly specified)

2.95 µM (inactive)
18.6 µM (inactive)

---

# System: NCI-H522
# Assay summary: NCI tumour cell line growth inhibition, 48 h
Active and inactive are the calls of the source. Cut-off read from the data, not from the text of the source: active = GI50 up to about 1.1 µM and inactive = higher.
Result category, one only: true for active, false for inactive

Sample answers from the record:
Compound: CC(=O)O[C@H]1C#C/C=C\C#CC[C@@H]2C(=O)N(C(=O)OC(C)(C)C)[C@@H]12
Target or test system: NCI-H522
Group label: false
//
Compound: CCOC(=O)C1NCCc2c1[nH]c1ccccc21 (stereo not given)
Target or test system: NCI-H522
Group label: false
//
Compound: COC(=O)C1=C(O)C(C(=O)OC)[C@@]2(O)[C@@H](C(=O)OC)[C@H](C)C[C@@H]1[C@@H]2C(=O)OC (stereo not given in full)
Target or test system: NCI-H522
Group label: false
//
Compound: CCOc1ccc(Nc2nc3c(s2)C(=O)c2ccccc2C3=O)cc1
Target or test system: NCI-H522
Group label: false
//
Compound: COc1c(OC)c(OC)c2c(c1OC)c(=O)c1ccccc1n2C
Target or test system: NCI-H522
Group label: false
//
Compound: CC(=O)c1ccccc1NCC(=O)Nn1cnc2ccc(S(=O)(=O)Nc3ccccc3C(C)=O)cc2c1=O
Target or test system: NCI-H522
Group label: false

Hey, what did the test say about `CN(C)CCNc1nc(-c2cccs2)cc(-c2cccs2)n1` ?
false

---

# Tested on: SK-MEL-2
# Assay summary: NCI tumour cell line growth inhibition, 48 h
Active and inactive are the calls of the source. No stated cut-off is given here; in the data, active = GI50 up to about 1.1 µM and inactive = higher. Where a SMILES comes first, the peptide text is derived from it. [ ]: non-standard residue; d: D form. The star is where a group is joined. Phe(4-NO2) = N[CH](Cc1ccc([N+](=O)[O-])cc1)C(=O)O; Boc = CC(C)(C)OC(=O)*; OtBu = CC(C)(C)O*
Would you kindly list GI50 for each of these compounds?

// solved cases for GI50 follow
Compound: C=CCC1=CC2(OC)C(=O)C(OC)(OC)C1C1C(OC)(OC)C(=O)C(OC)=CC12CC=C (configuration not stated)
GI50: > 100 µM (inactive)

Compound: O=C(Nc1ccc(Cl)cc1Cl)C1C(=O)OC2(CCCCC2)OC1=O
GI50: 2.93 µM (inactive)

Compound: COC1CCC2C(=O)CCCC2O1 (configuration not stated)
GI50: > 100 µM (inactive)

Compound: C/C(=N\NC(=S)N1CCN(c2ccccn2)CC1)c1nccs1
GI50: 1.83 µM (inactive)

Dear reader, for each entry below, please note its GI50.
1. O=NC1C(Cl)C2CC1C1C(Br)C(Br)CC21 (configuration not stated)
2. Nc1nc(O)c2nc(N)n(Cc3ccccc3)c2n1
3. CCCCN(CCCC)C1(c2cc3ccccc3s2)CCCCC1.[O-][Cl+3]([O-])([O-])O
4. CS(=O)(=O)OC1CCC2(C#N)CCC1C2=O (configuration not stated)
5. CSc1ccccc1P(c1ccccc1SC)c1ccccc1SC
6. COc1ccc(C(=O)C(c2ccc(OC)cc2)C2(O)C(=O)Nc3ccccc32)cc1 (configuration not stated)
7. O=C1CC2CC3OC3[C@H]3c4cc5c(cc4C(=O)N1C23)OCO5 (some centres not stated)

> 100 µM (inactive)
> 100 µM (inactive)
19.8 µM (inactive)
> 100 µM (inactive)
> 100 µM (inactive)
> 100 µM (inactive)
> 100 µM (inactive)

Dear reader, for each entry below, please note its GI50.
1. CCOC(=O)C1=C(C)N(NC(=O)Nc2ccccc2)C2(N)N(NC(=O)Nc3ccccc3)C(C)=C(C(=O)OCC)C12C(=O)OCC (configuration not stated)
2. C/C=C/COC(=O)CO[N+](=O)[O-]
3. COC12c3ccccc3-c3ccccc3C1[C@H]1C(=O)OC(=O)[C@H]12 (some centres not stated)
4. CC(=O)NC(CCC(=O)OC(C)(C)C)C(=O)NC(CCC(=O)OC(C)(C)C)C(=O)NC(Cc1ccc([N+](=O)[O-])cc1)C(=O)NC(CCCCNC(=O)OC(C)(C)C)C(=O)NC(CCCCNC(=O)OC(C)(C)C)C(=O)NCC(=O)O (configuration not stated) (Ac-E(OtBu)E(OtBu)[Phe(4-NO2)]K(Boc)K(Boc)G-OH; configuration not given here)
5. Cc1ccc2c3c(cnc2n1)C(=O)OCCN3C

["52.7 µM (inactive)", "> 100 µM (inactive)", "> 10 µM (inactive)", "75.2 µM (inactive)", "> 100 µM (inactive)"]

---

# System: SN12C
# Assay summary: NCI tumour cell line growth inhibition, 48 h
Active and inactive are the calls of the source. Rule as the data show it: active = GI50 up to about 1.1 µM and inactive = higher.
Would you kindly list GI50 for each of these compounds?

Dear reader, for each entry below, please note its GI50.
1. COC(=O)/C=C1/OC(c2ccccc2)=C(Cl)C1=O
2. C[n+]1cc2cc(O)c(O)cc2c2ccc3cc(O)c(O)cc3c21.c1ccncc1
3. CC(=O)NNC(=S)N/C=C1/C(=O)C=C(C)OC1=O

1: 23.1 µM (inactive); 2: 2.96 µM (inactive); 3: > 100 µM (inactive)

---

# Tested on: Malme-3M
# Assay summary: NCI tumour cell line growth inhibition, 48 h
The source made the active and inactive calls. Rule as the data show it: active = GI50 up to about 1.1 µM and inactive = higher.
Would you kindly list GI50 for each of these molecules?

// solved cases for GI50 follow
Molecule: C/C(CC(=O)Nc1ccc(C)cc1)=N\NC(N)=S
Result: > 100 µM (inactive)

Molecule: O=C1Nc2ccccc2/C1=C\c1c(Cl)n(-c2ccccc2)c2ccccc12
Result: 2.07 µM (inactive)

Molecule: CCOC(=O)/C(C#N)=C(O)/C(=C/c1ccccc1Cl)NC(=O)c1ccccc1
Result: > 100 µM (inactive)

Molecule: Cc1ccc(Nc2nc(=O)c3c4ccccc4n(C(=O)OC(C)(C)C)c3s2)cc1
Result: 28.4 µM (inactive)

Molecule: CCN1C(=O)N(C)C(O)c2c1nc1ccccn1c2=O (stereo not drawn)
Result: 38.6 µM (inactive)

Dear reader, for each entry below, please note its GI50.
1. CN(C)c1ccc(C2C(Cl)C(=O)N2NC(=O)c2c(Cl)c(Cl)c(Cl)c(Cl)c2-c2nc3ccccc3[nH]2)cc1 (stereo not drawn)
2. C/C(=N\NC(=S)N1CCC(C2CCN(C(=S)N/N=C(\C)c3ccccn3)CC2)CC1)c1ccccn1
3. CN(C)c1ccc(/C=C(\NC(=O)c2ccccc2)c2nc3ccccc3c(=O)o2)cc1
4. COC1C=CC(C(=O)[N+]2=Cc3[nH]c4ccccc4c3CC2)O1 (stereo not drawn)
5. COC12c3ccccc3-c3ccccc3C1[C@H]1C(=O)OC(=O)[C@H]12 (stereo partly drawn)
6. CCCCCC(=O)Nc1[nH]cnc1C(N)=O
7. COC1OC(CBr)C(OC(=O)c2ccccc2)C(OS(=O)(=O)c2ccc(C)cc2)C1Br (stereo not drawn)
8. O=c1c2cc([N+](=O)[O-])ccc2[nH]n1Cc1ccccn1

1. 16.3 µM (inactive)
2. > 100 µM (inactive)
3. > 100 µM (inactive)
4. > 100 µM (inactive)
5. > 10 µM (inactive)
6. > 100 µM (inactive)
7. > 100 µM (inactive)
8. > 100 µM (inactive)

Provenance of the data: ChEMBL document CHEMBL1201862
